biological target: full-length beta-Catenin (Uniprot ID P35222) (Homo sapiens, UniProt P35222); construct: 10 nM full-length beta-Catenin (Uniprot ID P35222); assay: Fluorescence polarization IC50 (beta-catenin / 5FAM-TCF4 10-53 competition); assay type: binding; settings: fluorescence polarization; read-out: beta-Catenin FP IC50
Sequence (P35222 whole entry): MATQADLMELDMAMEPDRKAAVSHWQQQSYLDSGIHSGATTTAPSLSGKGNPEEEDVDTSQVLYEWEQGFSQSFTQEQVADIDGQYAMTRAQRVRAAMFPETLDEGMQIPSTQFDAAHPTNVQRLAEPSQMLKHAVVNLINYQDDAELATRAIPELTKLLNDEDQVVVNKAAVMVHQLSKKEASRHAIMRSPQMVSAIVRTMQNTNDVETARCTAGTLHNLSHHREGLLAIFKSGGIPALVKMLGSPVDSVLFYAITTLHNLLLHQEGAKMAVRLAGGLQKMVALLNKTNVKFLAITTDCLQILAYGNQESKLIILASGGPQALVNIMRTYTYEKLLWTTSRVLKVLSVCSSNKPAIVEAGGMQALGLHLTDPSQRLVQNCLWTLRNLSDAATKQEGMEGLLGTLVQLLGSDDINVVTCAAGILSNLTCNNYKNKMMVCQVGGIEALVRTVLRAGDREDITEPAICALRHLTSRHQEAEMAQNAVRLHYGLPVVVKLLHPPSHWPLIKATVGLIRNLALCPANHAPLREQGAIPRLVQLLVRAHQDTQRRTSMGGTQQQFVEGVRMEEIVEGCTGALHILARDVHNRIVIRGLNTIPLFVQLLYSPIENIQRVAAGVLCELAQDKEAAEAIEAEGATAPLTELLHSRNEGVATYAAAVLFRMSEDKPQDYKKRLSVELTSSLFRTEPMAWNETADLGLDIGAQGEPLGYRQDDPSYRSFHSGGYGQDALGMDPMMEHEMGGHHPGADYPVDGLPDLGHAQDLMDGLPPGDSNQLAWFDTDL
pIC50: −log10 of the molar value.

MOLECULE	pIC50
CC(=O)N1CCC[C@]12CC=CCCCC1(CCCC=CCCCCCC[C@@](C)(C(=O)N[C@@H](Cc3ccccc3)C(=O)N[C@@H](Cc3csc4ccccc34)C(=O)N[C@@H](Cc3c[nH]cn3)C(N)=O)NC(=O)[C@H](CCCNC(N)=O)NC(=O)[C@H](Cc3ccccc3)NC(=O)[C@H](C)NC(=O)[C@H](C)NC(=O)[C@H](CCC(=O)O)NC(=O)[C@H](CC(=O)O)NC1=O)NC(=O)[C@H](CC(C)C)NC(=O)[C@H](CC(=O)O)NC2=O (some centres unmarked)	6.97
CC(=O)N1CCC[C@]12CC=CCCCC1(CCCC=CCCCOC(=O)N3CC[C@@](C(=O)N[C@@H](Cc4ccccc4C(F)(F)F)C(=O)N[C@@H](Cc4csc5ccccc45)C(=O)N[C@H](CO)[C@@H](C)O)(C3)NC(=O)[C@H](Cc3ccccc3)NC(=O)[C@H](Cc3ccccc3)NC(=O)[C@H](C)NC(=O)[C@H](C)NC(=O)[C@H](Cc3cccc(C(=O)O)c3)NC(=O)[C@H](CC(=O)O)NC1=O)NC(=O)[C@H](CC(C)(C)C)NC(=O)[C@H](CC(=O)O)NC2=O (some centres unmarked)	6.82
CC(=O)N1CCC[C@]12CC=CCCCC1(CCCC=CCCCOC(=O)N3CC[C@@](C(=O)N[C@@H](Cc4ccccc4Cl)C(=O)N[C@@H](Cc4csc5ccccc45)C(=O)N[C@H](C(N)=O)C(C)C)(C3)NC(=O)[C@H](CO)NC(=O)[C@H](Cc3ccccc3)NC(=O)[C@H](C)NC(=O)[C@H](C)NC(=O)[C@H](Cc3cccc(C(=O)O)c3)NC(=O)[C@H](CC(=O)O)NC1=O)NC(=O)[C@H](CC(C)(C)C)NC(=O)[C@H](CC(=O)O)NC2=O (some centres unmarked)	7.49
CC(=O)N1CCC[C@]12CC=CCCCC1(CCCC=CCCCOC(=O)N3CC[C@@](C(=O)N[C@@H](Cc4ccccc4)C(=O)N[C@@H](Cc4csc5ccccc45)C(=O)N[C@@H](CCCCN)C(N)=O)(C3)NC(=O)[C@H](CC(C)C)NC(=O)[C@H](Cc3ccccc3)NC(=O)[C@H](C)NC(=O)[C@H](CCCCNC(C)C)NC(=O)[C@H](CCC(N)=O)NC(=O)[C@H](CC(=O)O)NC1=O)NC(=O)[C@H](CC1CCCCC1)NC(=O)[C@H](CC(N)=O)NC2=O (some centres unmarked)	7.20
CC(=O)N1CCC[C@]12CCCCCCC1(CCCCCCCCOC(=O)N3CC[C@@](C(=O)N[C@@H](Cc4ccccc4Cl)C(=O)N[C@@H](Cc4csc5ccccc45)C(=O)N[C@@H](CCC(N)=O)C(N)=O)(C3)NC(=O)[C@H]([C@@H](C)O)NC(=O)[C@H](Cc3ccccc3)NC(=O)[C@H](C)NC(=O)[C@H](C)NC(=O)[C@H](CN(CC(=O)O)CC(F)(F)F)NC(=O)[C@H](CC(=O)O)NC1=O)NC(=O)[C@H](CC(C)(C)C)NC(=O)[C@H](CC(=O)O)NC2=O (some centres unmarked)	6.97
